Hey, just so you know, these numbers are from ChEMBL document CHEMBL1141332.

As shown below, each of these molecules has a reported LC50 value.
test system: TK-10; assay: Cytotoxicity against human TK10 cells; assay type: functional
Use µM as the unit, but write only the number.

# count of solved cases: 2
- CC(=O)O[C@@H]1C[C@H]2[C@]3(C)CC[C@H]4C(C)(C)CCC[C@]4(C)[C@H]3C[C@H](O)[C@]2(C)[C@@H](C=O)[C@@H]1C(C)=O: 6.61
- CC(=O)C1=CC[C@H]2[C@]3(C)CC[C@H]4C(C)(C)CCC[C@]4(C(=O)O)[C@H]3CC(=O)[C@]2(C)[C@H]1C=O: 6.61

// switching to the query molecule
Inquiry: What value of LC50 has been reported for the following molecule? CC(=O)O[C@H]1C[C@H]2[C@@](C)(CC[C@H]3C(C)(C)CCC[C@@]32CO)[C@@H]2CC=C(C(C)=O)[C@H](C=O)[C@@]12C
Reply text: 3.39
